Test system: RPMI-8226 leukemia
testMethodNotes: NCI tumour cell line growth inhibition, 48 h
observationType: GI50

Requested field: GI50. Item: "C[C@@H](Nc1cc(F)cc(F)c1)c1cc(C(=O)N(C)C)cc2c(=O)cc(N3CCOCC3)oc12" 36.7 µM

Any idea what its GI50 is? The compound is "Cn1c(CCCC(=O)O)nc2cc(N(CCCl)CCCl)ccc21" > 85.3 µM

Look up GI50 for this compound: "Cc1ccc(C[As+](c2ccccc2)(c2ccccc2)c2ccccc2)cc1" 0.218 µM

Entry under review: Cc1nc2sc(C(=O)Nc3cccc(Br)c3C)c(N)c2cc1C(O)c1ccccc1 (stereo not given) . Reported GI50? 0.0455 µM

So what's the measured GI50 for this one? "CN1CCN(CCCNC(=O)c2c3c(n4ccccc24)C(=O)c2ncccc2C3=O)CC1" 3.02 µM

The origin of these recorded values is PubChem BioAssay (NCI).
